viability, T/C overview
test system: LG0567-F671-PDC KRAS tumor spheroid viability; assay: Anticancer human tumor LG0567-F671-PDC patient-derived lung adenocarcinoma cell line growth inhibition [KRAS2]; conditions: second compound 1 µM; first compound 0.1 µM; hits give low values; spheroids with HUVEC and MSC

compound	tested target	viability, T/C (%)
COc1cc(Nc2ncc3c(n2)-c2ccc(Cl)cc2C(c2c(F)cccc2OC)=NC3)ccc1C(=O)O + C=CC(=O)N1CCN(c2nc(OCC3CCCN3C)nc3c2CCN(c2cccc4cccc(C)c24)C3)CC1CC#N	LG0567-F671-PDC KRAS tumor spheroid viability	26.4
COC(=O)c1ccc2c(C(=Nc3ccc(N(C)C(=O)CN4CCN(C)CC4)cc3)c3ccccc3)c(O)[nH]c2c1 + COc1cc2nc(C)nc(NC(C)c3cc(N)cc(C(F)(F)F)c3)c2cc1OC1CCOC1	LG0567-F671-PDC KRAS tumor spheroid viability	66.3
CC1(C)CCC(CN2CCN(c3ccc(C(=O)NS(=O)(=O)c4ccc(NCC5CCOCC5)c([N+](=O)[O-])c4)c(Oc4cnc5[nH]ccc5c4)c3)CC2)=C(c2ccc(Cl)cc2)C1 + CC1OCC2(CCN(c3cnc(Sc4ccnc(N)c4Cl)c(N)n3)CC2)C1N	LG0567-F671-PDC KRAS tumor spheroid viability	26.2

---

system: LG0567-F671-PDC KRAS tumor spheroid viability; experiment: Anticancer human tumor LG0567-F671-PDC cell line growth inhibition [KRAS2]; details: second compound 10 µM; first compound 0.1 µM; spheroids with HUVEC and MSC; active = viability on the fitted dose curve at most 10% of control; inactive = the rest;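 note: drug exposure lasted seven days after spheroids formed for three days; 100% = DMSO vehicle control viability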
Possible outcomes: yes (1) (active), no (0) (inactive)

compound	tested target	cat
CC(C)n1nc(-c2ccc3oc(N)nc3c2)c2c(N)ncnc21 + CC1OCC2(CCN(c3cnc(Sc4ccnc(N)c4Cl)c(N)n3)CC2)C1N	LG0567-F671-PDC KRAS tumor spheroid viability	yes (1)
CCNC(=O)CC1N=C(c2ccc(Cl)cc2)c2cc(OC)ccc2-n2c(C)nnc21 (stereo not given) + C=CC(=O)N1CCN(c2nc(=O)n(-c3c(C)ccnc3C(C)C)c3nc(-c4c(O)cccc4F)c(F)cc23)C(C)C1	LG0567-F671-PDC KRAS tumor spheroid viability	no (0)
COC(=O)c1ccc2c(C(=Nc3ccc(N(C)C(=O)CN4CCN(C)CC4)cc3)c3ccccc3)c(O)[nH]c2c1 + COc1cc2nc(C)nc(NC(C)c3cc(N)cc(C(F)(F)F)c3)c2cc1OC1CCOC1	LG0567-F671-PDC KRAS tumor spheroid viability	no (0)
CC1(C)CCC(CN2CCN(c3ccc(C(=O)NS(=O)(=O)c4ccc(NCC5CCOCC5)c([N+](=O)[O-])c4)c(Oc4cnc5[nH]ccc5c4)c3)CC2)=C(c2ccc(Cl)cc2)C1 + C=CC(=O)N1CCN(c2nc(=O)n(-c3c(C)ccnc3C(C)C)c3nc(-c4c(O)cccc4F)c(F)cc23)C(C)C1	LG0567-F671-PDC KRAS tumor spheroid viability	no (0)
CCN1CCN(Cc2ccc(Nc3ncc(F)c(-c4cc(F)c5nc(C)n(C(C)C)c5c4)n3)nc2)CC1 + C=CC(=O)N1CCN(c2nc(=O)n(-c3c(C)ccnc3C(C)C)c3nc(-c4c(O)cccc4F)c(F)cc23)C(C)C1	LG0567-F671-PDC KRAS tumor spheroid viability	no (0)
O=C(c1cc(Cc2n[nH]c(=O)c3ccccc23)ccc1F)N1CCN(C(=O)C2CC2)CC1 + CC1OCC2(CCN(c3cnc(Sc4ccnc(N)c4Cl)c(N)n3)CC2)C1N	LG0567-F671-PDC KRAS tumor spheroid viability	no (0)
COc1cc(Nc2ncc3c(n2)-c2ccc(Cl)cc2C(c2c(F)cccc2OC)=NC3)ccc1C(=O)O + C=CC(=O)N1CCN(c2nc(=O)n(-c3c(C)ccnc3C(C)C)c3nc(-c4c(O)cccc4F)c(F)cc23)C(C)C1	LG0567-F671-PDC KRAS tumor spheroid viability	no (0)
Cn1nccc1Nc1nccc(-c2cc3c(s2)C(C)(C)N(CCN2CCOCC2)C3=O)n1 + COc1cc2nc(C)nc(NC(C)c3cc(N)cc(C(F)(F)F)c3)c2cc1OC1CCOC1	LG0567-F671-PDC KRAS tumor spheroid viability	no (0)
COc1cc2nccc(Oc3ccc(NC(=O)C4(C(=O)Nc5ccc(F)cc5)CC4)cc3)c2cc1OC + COc1cc2nc(C)nc(NC(C)c3cc(N)cc(C(F)(F)F)c3)c2cc1OC1CCOC1	LG0567-F671-PDC KRAS tumor spheroid viability	no (0)
CC1OCC2(CCN(c3cnc(Sc4ccnc(N)c4Cl)c(N)n3)CC2)C1N (stereo not given) + CNCc1ccccc1-c1csc(C(C)Nc2nc(C)nc3cc(OC)c(OC)cc23)c1	LG0567-F671-PDC KRAS tumor spheroid viability	yes (1)
